# Tested on: 786-0 renal
# ASSAY COMMENT: NCI-60 one-dose screen, 48 h (100 = growth as untreated, 0 = no growth, -100 = all killed)
# TEST SETTINGS: 10 µM unless noted
This is part of a sample that, as a whole, favours compounds with a hit. Of some 83,000 tested, about 20% had one in any assay.
MEASURED QUANTITY: growth (%)
Respond numerically; units are % and should not be typed.

Provide the documented growth with 786-0 renal as the system for O=P(OCCCl)(OCCCl)C(O)c1ccccc1Cl (stereo not drawn)
110

Queued: `COc1cccc(NC(=O)NCCNc2nccc(-c3c(-c4ccc(F)cc4)nc4sccn34)n2)c1`
63

Also check `CC(C)CCCCCOC(=O)c1ccccc1SSc1ccccc1C(=O)OCCCCCC(C)C`
104

Can you handle `COC(=O)Nc1nc2ccc(C(=O)c3ccccc3N(C)C3COC3)cc2[nH]1` next?
34.4

# iterate: `Cc1ccc(CC(=O)O)c(C)c1`
105

What about this compound? `Clc1ccc(N/N=C/c2ccccn2)nc1`
7.14

Another compound: `C[C@@H](c1ccc2c(c1)[nH]c1ccc(Cl)cc12)c1nc2ccccc2[nH]1`
103

// next record `Cc1ncc(C(=O)Nc2ccc(CN3CCN(C)CC3)c(C(F)(F)F)c2)cc1C#Cc1c(N)ncc2ccccc12`
-91.8

Try `COc1cc(NC(=O)CSc2nc3ccc(Cl)cc3c(=O)n2-c2ccc(F)cc2)cc(OC)c1OC` next.
75.2

`COc1ccc(-c2cn3ccnc3c(-c3ccc4ncn(C5CCCCC5)c4c3)n2)cc1` ?
16.8

Next compound: `COc1cc(/C=C/C(=O)/C=C(/C=C/c2ccc(OC(C)=O)c(OC)c2)OB(F)F)ccc1OC(C)=O`
80.7

Do the same for `CCOC(=O)c1c(C)oc2ncnc(Nc3ccc(NC(=O)Nc4ccc(CC)cc4)cc3)c12` please
99.8

Query COC(=O)C(N)CC(C)C (stereo not drawn) next
96.7

* * *

# Test system: DU-145 prostate
# ASSAY COMMENT: NCI-60 one-dose screen, 48 h (100 = growth as untreated, 0 = no growth, -100 = all killed)
# TEST SETTINGS: 10 µM unless noted
About 83,000 compounds went through this panel and 20% of them were active in at least one assay; those are over-represented in the sample as a whole. Calls of active or inactive are those of the source. The calls were made as follows: active = growth percent below 10; inactive = the rest.
I'd appreciate it if you could supply growth values for the items below.

Data request, read-out growth, for `c1ccc(-c2cn3ccnc3c(-c3ccc4ncn(C5CCCCC5)c4c3)n2)cc1`
70.7% (inactive)

Next entry: `COc1ccc(CN2C(=O)/C(=C\C(=O)c3ccc(OCCN4CCCC4)cc3)c3ccccc32)cc1`
71.9% (inactive)

How about COC(=O)C(Cc1cnc[nH]1)N1CC(=O)N2[C@@H](c3ccccc3)SC[C@H]2C1=O (stereo not given in full) ?
117% (inactive)

Next up: COC(=O)C(C)[C@H]1CC[C@@H]2[C@]1(C)CC=C1[C@]23C=C[C@]2(C[C@@H](OC(C)=O)CC[C@]12C)C(C(=O)OC)C3C(=O)OC (stereo not given in full)
99.6% (inactive)

Follow-up entry: COC(=O)/C=C1/CCCCC1(C)C(=O)OC (stereo not given)
112% (inactive)

Also COC(=O)C1CC(=O)N(C(=O)Nc2ccc(Cl)cc2Cl)C1 (stereo not given) ?
114% (inactive)

Follow-up item: `CCCCCCCCCC[N+](C)(C)N`
111% (inactive)

Would you kindly repeat that for `CCOc1ccc2nc3ccc(Cl)cc3nc2c1` ?
92.2% (inactive)

Moving on to `C=C(NC(=O)[C@H](C(C)C)N(C)c1cccc2[nH]ccc12)C(=O)OC`
100% (inactive)

Query CCCCCN1CCN(C(CC(=O)c2ccccc2)C(=O)c2ccccc2)CC1 (stereo not given) next
69.1% (inactive)

* * *

# Tested on: UO-31 renal
# ASSAY COMMENT: NCI-60 one-dose screen, 48 h
# TEST SETTINGS: 10 µM unless noted
This is part of a sample that, as a whole, favours compounds with a hit. Of some 83,000 tested, about 20% had one in any assay. Active and inactive are the calls of the source. Rule for the calls: active = growth percent below 10; inactive = the rest.
Outcome field: choose from active, inactive

Please let me know the test result on file for `COc1cc(N2C(=O)C=CC2=O)ccc1N1C(=O)C=CC1=O` .
inactive

Can you check CCC(CCCN1C(=O)c2ccccc2C1=O)Nc1cc(OC)cc2c(C)ccnc12 (stereo not drawn) next?
inactive

Let us now turn to `O=C(/C=C/c1ccc(Br)cc1)c1ccccc1`
inactive

// repeat for `[N-]=[N+]=Nc1ncc(-c2ccc(C(F)(F)F)cc2)c(NC2CCCCCC2)n1` and report
inactive

Now consider `CCCCN(CCCC)CCCNc1c2c(nc3ccc(Cl)cc13)CCCC2` .
inactive

Next: `CCN(CC)CCOC(=O)c1cccnc1`
inactive

Then CC1CCCCC[N+]12CCCC2 (stereo not drawn) ?
inactive

Please give the result for `CCCCCCCCCCCCCCCCCC1=NCCN1CCNC(C)=O` too.
inactive

Next molecule: `CCCCCCCCCCCCCCCCNC(=O)Nc1ccc(C)c(NC(=O)NCCCCCCCCCCCCCCCC)c1`
inactive

Please answer likewise for `COc1cccc2c1n([O-])c1cccc(OC)c1[n+]2=O`
inactive

What do you have for `OCCN1CCCN(CCCN2c3ccccc3Sc3ccc(C(F)(F)F)cc32)CC1` ?
inactive

And the next one, `O=C(/C(Br)=C/c1ccccc1)c1ccccc1` ?
active

Now the same for `Br/C(=N\Nc1nn[nH]n1)c1ccccc1`
inactive

Next record, please: `O=[N+]([O-])c1ccc(-c2ncc(-c3ccc(O)cc3O)[nH]2)cc1`
inactive

Now the same for `O=C(/C=C1\C(=O)N(Cc2ccccc2)c2ccccc21)c1ccc(OCCN2CCCCC2)cc1`
active

Input CCCCCCCCCCCC(=O)OC(C)C(=O)Nc1ccccc1 (stereo not drawn)
inactive

Same question, Cc1ccc(C(=O)C(Br)C(Br)c2ccccc2)cc1 (stereo not drawn) this time
inactive

Lookup `O=C(Nc1ccc(-n2cc(-c3ccncc3)c(-c3ccc(Cl)c(O)c3)n2)cc1)c1cc(C(F)(F)F)cc(C(F)(F)F)c1`
inactive

Another molecule to check: C/C=C(/C)C(=O)OC1C=C(CO)C(=O)C(OC(=O)C2(C)OC2C)C1C(C)C (stereo not drawn)
active

Entry to check: `CC(C)(C)c1ccc(OCCOC(=O)CBr)cc1`
inactive

Try this molecule too: `Cc1ccc(C(=O)Nc2ccc(CN3CCN(C)CC3)c(C(F)(F)F)c2)cc1C#Cc1cncc2ncccc12`
active

Record: `COc1ccc(Cn2cc3c(c2-c2ccc(O)cc2)CCc2cnoc2-3)cc1`
inactive

Queued: CC(O)CN(CCO)CCN(CCO)CC(C)O (stereo not drawn)
inactive

* * *

# Test system: SNB-19 CNS
# ASSAY COMMENT: NCI-60 one-dose screen, 48 h
# TEST SETTINGS: 10 µM unless noted
About 83,000 compounds went through this panel and 20% of them were active in at least one assay; those are over-represented in the sample as a whole. Calls of active or inactive are those of the source. The calls were made as follows: active = growth percent below 10; inactive = the rest.
A correct response names exactly one class from 1 (yes) (active), 0 (no) (inactive)

Outcome? `O=C(Nc1ccc(-n2cc(-c3ccncc3)c(-c3ccc(Cl)c(O)c3)n2)cc1)c1cc(C(F)(F)F)cc(C(F)(F)F)c1`
0 (no)

Would you kindly repeat that for `NNC(=O)CNc1ccc2ccccc2c1` ?
0 (no)

Next compound: `c1ccc(Nc2ccccn2)cc1`
0 (no)

Consider next the compound `COc1cc2cn3c4ccc(O)cc4[nH]c(=O)c3c2cc1OC` in the same way.
0 (no)

Same question, `CC1=C[C@@H]2c3c(c(O)c(O)c4oc5cc(O)cc(O)c5c(=O)c34)[C@@H](c3cc(O)c(O)c4oc5cc(O)cc(O)c5c(=O)c34)[C@@H]2C(C)(C)C1` this time
1 (yes)

And then `COc1cc(-c2nn(-c3ccc(NC(=O)Nc4ccc(Cl)c(C(F)(F)F)c4)cc3)cc2-c2ccncc2)ccc1Cl` , what is it?
0 (no)

Subsequent entry: COC(=O)C(Cc1cnc[nH]1)N1CC(=O)N2[C@@H](c3ccccc3)SC[C@H]2C1=O (stereo not given in full)
0 (no)

Now this one: `CC(=O)CC(=O)OC/C=C(/C)CCC=C(C)C`
0 (no)

What about O=c1c2c(c3ccccc3n1-c1ccccc1)NC(=S)NC2c1ccc(Cl)cc1 (stereo not given) ?
0 (no)

Repeat with `C[C@H]1C[C@@H](n2cnc3c(N)nccc32)[C@H](O)[C@@H]1O`
0 (no)

* * *

# Test system: MOLT-4 leukemia
# ASSAY COMMENT: NCI-60 one-dose screen, 48 h
# TEST SETTINGS: 10 µM unless noted
This is part of a sample that, as a whole, favours compounds with a hit. Of some 83,000 tested, about 20% had one in any assay. Activity calls are given as the source filed them. Rule for the calls: active = growth percent below 10; inactive = the rest.
Entry note: the call must match one of active, inactive

Which outcome did this test record for the compound `C=CCNC(=S)NNc1ccc([N+](=O)[O-])cn1` ?
inactive

# repeat for `CC(=O)c1nn(-c2ccc(C)cc2)cc1C(=O)c1cc2c(ccc3ccccc32)oc1=O`
inactive

Further, for `CCCCCCCCCCCCCCCC[n+]1cccc(C#N)c1` ?
active

What do you have for C=C[C@]1(C)C=C2C(=O)[C@@]3(O)OC[C@@]4(CCCC(C)(C)C43O)C2(O)C(O)C1 (stereo partly specified) ?
inactive

Then what about the compound `C/C(=N\Nc1ccc(Cl)cn1)c1ccc2ccccc2n1` ?
active

COC(=O)C(C(=O)OC)C(Br)C(Br)C(Br)c1ccccc1 (stereo unspecified) , same question.
inactive

Values compiled from PubChem BioAssay (NCI).
